# EXPERIMENTAL_TARGET: T1, cMet-Fc fusion protein (extracellular domain of the cMet receptor expressed as an Fc-fusion protein) (human, UniProt P08581 25-932)
# T1 construct: extracellular domain; also called soluble cMet-Fc-fusion protein; soluble cMet receptor; not shown: Fc part
# T1 sequence (P08581 25-932): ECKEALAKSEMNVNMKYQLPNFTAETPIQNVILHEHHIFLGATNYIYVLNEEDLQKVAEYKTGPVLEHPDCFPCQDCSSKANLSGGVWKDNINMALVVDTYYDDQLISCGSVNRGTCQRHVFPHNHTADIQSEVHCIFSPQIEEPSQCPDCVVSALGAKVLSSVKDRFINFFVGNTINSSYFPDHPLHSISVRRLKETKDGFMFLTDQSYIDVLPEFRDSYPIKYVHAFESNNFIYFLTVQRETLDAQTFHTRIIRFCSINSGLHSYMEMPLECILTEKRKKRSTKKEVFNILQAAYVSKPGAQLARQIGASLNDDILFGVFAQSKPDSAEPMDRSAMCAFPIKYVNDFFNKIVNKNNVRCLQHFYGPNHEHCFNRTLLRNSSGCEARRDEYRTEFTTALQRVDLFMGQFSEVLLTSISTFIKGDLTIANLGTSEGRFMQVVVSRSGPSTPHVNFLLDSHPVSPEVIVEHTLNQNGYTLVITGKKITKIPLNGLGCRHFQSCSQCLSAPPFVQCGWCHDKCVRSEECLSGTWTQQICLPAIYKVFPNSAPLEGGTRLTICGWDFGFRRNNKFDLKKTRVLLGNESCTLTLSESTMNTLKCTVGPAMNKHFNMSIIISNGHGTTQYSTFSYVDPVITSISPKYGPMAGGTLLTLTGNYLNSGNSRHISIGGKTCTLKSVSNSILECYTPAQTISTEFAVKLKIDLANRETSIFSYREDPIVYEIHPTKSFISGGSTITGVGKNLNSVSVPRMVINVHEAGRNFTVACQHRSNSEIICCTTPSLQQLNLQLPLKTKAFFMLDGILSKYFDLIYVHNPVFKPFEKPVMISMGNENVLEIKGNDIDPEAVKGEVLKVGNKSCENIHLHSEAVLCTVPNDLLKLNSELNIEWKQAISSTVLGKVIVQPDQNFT
# ASSAY_PROTOCOL: fluorescence polarization, 20 nM fluorescein peptide, cMet-Fc varied
pKd: −log10 of the molar value. fluorescein = fluorescein label on the side chain of the C-terminal Lys
Examples of binders with documented pKd follow.
PARAMETER_MEASURED: pKd

• Ac-AGYTSCVGPPSFECTPYGTGGGK(fluorescein)-NH2 (cysteine pairing not given here) [323-A11 synthetic fluorescein-labeled peptide (SEQ ID NO: 059)] = 5.37
• Ac-GSWIICWWDNCGSSAPGGGK(fluorescein)-NH2 (cysteine pairing not given here) [571-C05 synthetic fluorescein-labeled peptide (SEQ ID NO: 001)] = 6.70
• Ac-GSFFPCWRIDRFGYCHANAPGGGK(fluorescein)-NH2 (cysteine pairing not given here) [551-H10 synthetic fluorescein-labeled peptide (SEQ ID NO: 370)] = 6.66

The reported numbers originate from patent US20120039802A1.
